Reference for the values: paper PMC6351562

TESTED TARGET: Lactobacillus rhamnosus GUS (LrGUS) (Lacticaseibacillus rhamnosus, UniProt A0A2A5L2J1)
TEST DETAILS: In vitro inhibition assay (pNPG hydrolysis)
Assay type: biochemical
ASSAY CONTEXT: read-out: UNC10201652 (IC50, nM) pH 6.5

INPUT SMILES	IC50
C1CCc2c(c(N3CCOCC3)nc3sc4c(N5CCNCC5)nnnc4c23)C1	> 100000 nM

* * *

TESTED TARGET: Lactobacillus rhamnosus GUS (LrGUS) (Lacticaseibacillus rhamnosus)
Sequence (A0A2A5L2J1 1-603): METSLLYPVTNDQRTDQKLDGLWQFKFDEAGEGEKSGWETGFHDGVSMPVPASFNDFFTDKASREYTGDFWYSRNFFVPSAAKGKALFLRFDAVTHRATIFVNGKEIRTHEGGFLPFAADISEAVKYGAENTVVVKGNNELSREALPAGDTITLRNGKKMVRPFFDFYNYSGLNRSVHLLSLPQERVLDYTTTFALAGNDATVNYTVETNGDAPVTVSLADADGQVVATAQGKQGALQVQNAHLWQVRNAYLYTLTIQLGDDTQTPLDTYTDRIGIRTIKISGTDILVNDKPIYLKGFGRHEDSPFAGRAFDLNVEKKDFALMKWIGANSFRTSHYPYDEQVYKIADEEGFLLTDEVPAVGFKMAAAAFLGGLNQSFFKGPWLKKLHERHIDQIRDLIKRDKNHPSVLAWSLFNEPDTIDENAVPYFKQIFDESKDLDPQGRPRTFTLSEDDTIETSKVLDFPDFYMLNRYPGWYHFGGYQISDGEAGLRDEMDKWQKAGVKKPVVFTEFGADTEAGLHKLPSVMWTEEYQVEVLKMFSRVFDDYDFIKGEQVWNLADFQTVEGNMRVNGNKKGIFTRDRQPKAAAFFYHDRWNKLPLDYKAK
TEST DETAILS: In vitro inhibition assay (pNPG hydrolysis)
Assay type: biochemical
TEST READOUT: IC50

COMPOUND	RESULT
CCOc1ccc(NC(=S)N(CCO)Cc2cc3cc(C)cc(C)c3[nH]c2=O)cc1 [Inhibitor 1]	> 100 µM

* * *

TESTED TARGET: Bacteroides dorei GUS (BdGUS) (Phocaeicola dorei, UniProt I9FNR0)
Sequence (I9FNR0 21-875): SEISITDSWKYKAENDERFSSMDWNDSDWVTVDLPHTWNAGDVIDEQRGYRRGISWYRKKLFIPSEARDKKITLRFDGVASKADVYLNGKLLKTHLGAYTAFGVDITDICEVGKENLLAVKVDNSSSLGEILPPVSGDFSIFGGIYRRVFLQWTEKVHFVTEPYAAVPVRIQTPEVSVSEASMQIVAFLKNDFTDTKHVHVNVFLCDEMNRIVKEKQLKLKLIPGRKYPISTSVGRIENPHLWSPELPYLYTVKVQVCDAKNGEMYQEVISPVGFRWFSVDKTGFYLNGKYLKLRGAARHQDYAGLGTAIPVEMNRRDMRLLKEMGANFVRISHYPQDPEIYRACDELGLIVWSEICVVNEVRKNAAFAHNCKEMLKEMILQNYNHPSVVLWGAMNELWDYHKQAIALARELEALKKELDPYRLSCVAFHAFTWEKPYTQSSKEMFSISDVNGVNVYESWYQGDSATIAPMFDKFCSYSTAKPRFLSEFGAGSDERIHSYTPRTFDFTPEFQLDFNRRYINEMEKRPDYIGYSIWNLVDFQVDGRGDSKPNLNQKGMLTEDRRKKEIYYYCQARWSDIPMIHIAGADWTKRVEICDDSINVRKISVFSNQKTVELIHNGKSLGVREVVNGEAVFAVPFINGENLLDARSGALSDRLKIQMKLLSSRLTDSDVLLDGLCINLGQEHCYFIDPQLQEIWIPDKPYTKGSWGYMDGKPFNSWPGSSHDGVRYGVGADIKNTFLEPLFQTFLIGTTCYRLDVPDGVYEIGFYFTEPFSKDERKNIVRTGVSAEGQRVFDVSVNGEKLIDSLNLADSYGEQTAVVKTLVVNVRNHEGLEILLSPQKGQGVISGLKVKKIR
TEST DETAILS: In vitro inhibition assay (pNPG hydrolysis)
Assay type: biochemical
ASSAY CONTEXT: pH 7.5; pNPG 900 µM; 1 hour end point; read-out: UNC10201652 (IC50, nM) pH 7.5
TEST READOUT: IC50

INPUT SMILES	RESULT
C1CCc2c(c(N3CCOCC3)nc3sc4c(N5CCNCC5)nnnc4c23)C1	> 25000 nM
